Ref: patent US12559506B2

- tgt: G2019S LRRK2 (Homo sapiens, UniProt Q5S007, G2019S)
- Construct: expressed in transfected cells; host or cells: HEK293 (ATCC CRL-1573), transient transfection, mammalian expression vector with ubiquitin promoter
- Sequence (Q5S007 whole entry G2019S): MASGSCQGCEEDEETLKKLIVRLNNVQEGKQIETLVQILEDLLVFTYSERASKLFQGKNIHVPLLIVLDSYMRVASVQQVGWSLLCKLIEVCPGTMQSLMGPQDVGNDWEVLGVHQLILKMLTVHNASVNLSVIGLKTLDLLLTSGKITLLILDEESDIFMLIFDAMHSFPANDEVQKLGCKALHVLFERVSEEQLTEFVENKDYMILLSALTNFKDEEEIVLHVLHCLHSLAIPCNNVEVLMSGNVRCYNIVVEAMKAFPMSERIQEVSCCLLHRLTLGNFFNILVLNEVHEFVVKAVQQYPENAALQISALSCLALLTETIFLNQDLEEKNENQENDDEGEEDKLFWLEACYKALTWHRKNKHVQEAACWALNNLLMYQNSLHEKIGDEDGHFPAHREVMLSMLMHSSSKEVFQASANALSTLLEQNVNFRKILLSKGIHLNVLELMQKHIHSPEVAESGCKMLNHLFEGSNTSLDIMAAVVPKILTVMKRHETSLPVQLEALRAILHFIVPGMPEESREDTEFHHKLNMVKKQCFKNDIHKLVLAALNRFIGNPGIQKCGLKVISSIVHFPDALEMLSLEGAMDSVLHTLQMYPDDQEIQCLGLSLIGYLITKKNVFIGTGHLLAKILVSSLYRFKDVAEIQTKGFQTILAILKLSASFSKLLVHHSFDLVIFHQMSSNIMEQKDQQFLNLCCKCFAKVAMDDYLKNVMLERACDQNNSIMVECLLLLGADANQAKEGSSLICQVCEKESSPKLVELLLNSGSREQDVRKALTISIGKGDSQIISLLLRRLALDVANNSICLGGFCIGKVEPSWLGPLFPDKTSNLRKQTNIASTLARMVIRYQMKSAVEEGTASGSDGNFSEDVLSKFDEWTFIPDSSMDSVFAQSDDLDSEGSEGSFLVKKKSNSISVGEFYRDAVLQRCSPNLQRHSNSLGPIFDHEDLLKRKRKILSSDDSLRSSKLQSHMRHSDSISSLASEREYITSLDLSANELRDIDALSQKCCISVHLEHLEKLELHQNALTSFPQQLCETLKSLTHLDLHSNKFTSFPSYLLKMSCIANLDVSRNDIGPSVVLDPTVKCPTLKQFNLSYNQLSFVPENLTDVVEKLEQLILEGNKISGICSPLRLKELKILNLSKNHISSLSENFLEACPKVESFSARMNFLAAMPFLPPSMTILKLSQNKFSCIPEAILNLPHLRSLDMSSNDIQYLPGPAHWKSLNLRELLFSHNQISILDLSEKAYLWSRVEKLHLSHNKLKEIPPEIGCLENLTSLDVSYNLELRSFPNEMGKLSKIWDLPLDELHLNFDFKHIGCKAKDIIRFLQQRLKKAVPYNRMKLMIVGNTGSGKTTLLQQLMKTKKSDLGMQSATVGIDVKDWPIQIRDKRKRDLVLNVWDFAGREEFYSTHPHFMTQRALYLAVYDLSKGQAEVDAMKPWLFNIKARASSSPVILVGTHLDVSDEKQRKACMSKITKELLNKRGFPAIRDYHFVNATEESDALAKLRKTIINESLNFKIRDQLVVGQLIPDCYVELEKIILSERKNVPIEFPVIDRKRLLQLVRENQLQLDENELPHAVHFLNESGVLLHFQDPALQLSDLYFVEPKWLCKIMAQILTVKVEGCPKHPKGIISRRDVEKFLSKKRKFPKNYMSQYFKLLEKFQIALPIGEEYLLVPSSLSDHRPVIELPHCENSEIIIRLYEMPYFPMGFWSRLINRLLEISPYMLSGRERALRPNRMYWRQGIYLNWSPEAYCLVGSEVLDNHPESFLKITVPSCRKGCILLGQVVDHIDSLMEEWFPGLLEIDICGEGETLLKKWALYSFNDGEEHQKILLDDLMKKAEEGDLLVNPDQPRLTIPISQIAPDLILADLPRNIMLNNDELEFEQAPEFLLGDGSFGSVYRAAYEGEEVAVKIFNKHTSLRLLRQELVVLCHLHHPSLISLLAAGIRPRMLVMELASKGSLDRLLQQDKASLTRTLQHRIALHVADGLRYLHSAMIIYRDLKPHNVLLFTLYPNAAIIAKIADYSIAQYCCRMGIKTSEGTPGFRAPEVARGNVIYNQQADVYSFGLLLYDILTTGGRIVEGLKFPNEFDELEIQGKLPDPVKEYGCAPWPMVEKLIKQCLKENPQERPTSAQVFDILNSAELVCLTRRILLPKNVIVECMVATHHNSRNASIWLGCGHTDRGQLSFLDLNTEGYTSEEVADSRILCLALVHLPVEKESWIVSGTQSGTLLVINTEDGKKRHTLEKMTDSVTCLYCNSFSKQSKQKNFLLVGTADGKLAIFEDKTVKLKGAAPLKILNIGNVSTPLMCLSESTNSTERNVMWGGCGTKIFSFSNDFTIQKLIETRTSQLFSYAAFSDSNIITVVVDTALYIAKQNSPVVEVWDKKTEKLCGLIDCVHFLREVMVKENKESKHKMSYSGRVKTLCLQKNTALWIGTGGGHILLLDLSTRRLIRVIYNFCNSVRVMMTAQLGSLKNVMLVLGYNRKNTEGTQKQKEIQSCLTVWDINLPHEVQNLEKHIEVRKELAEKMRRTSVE
- method: LRRK2 degradation assay, HiBit-tagged G2019S LRRK2 expressed from plasmid in HEK293 cells (Nano-Glo Dual-Luciferase)
- Type: cell-based
- condition-set: HiBit-tagged G2019S LRRK2 in HEK293 cells, 24 hours
measurement-name: DC50

QUERY: Which measured DC50 value corresponds to CC1(Oc2ccc3[nH]nc(-c4ccnc(N5CCC(CN6CCN(CC7CCN(c8ccc9c(c8)C(=O)N(C8CCC(=O)NC8=O)C9=O)CC7)CC6)CC5)c4)c3c2)CC1 (centres unmarked) ?
RESULT: < 10 nM

QUERY: Another compound to look at: C[C@H]1CN(c2cc(-c3[nH]nc4ccc(OC5(C)CC5)cc34)ncn2)CCN1CC1CCN(CC2CCN(c3ccc4c(c3)CN(C3CCC(=O)NC3=O)C4=O)CC2)CC1 (some centres unmarked)
RESULT: < 10 nM

QUERY: Another compound to look at: CC1(Oc2ccc3[nH]nc(-c4cc(N5CC(CN6CCN(CC7CCN(c8ccc9c(c8)C(=O)N(C8CCC(=O)NC8=O)C9=O)CC7)CC6)C5)ncn4)c3c2)CC1 (centres unmarked)
RESULT: < 10 nM

QUERY: Another compound to look at: CC1(Oc2ccc3[nH]nc(-c4cc(N5CCC(CN6CCN(CC7CCN(c8ccc9c(c8)C(=O)N(C8CCC(=O)NC8=O)C9=O)CC7)CC6)CC5)ccn4)c3c2)CC1 (centres unmarked)
RESULT: ≥ 100 nM

QUERY: Another compound to look at: CC1(Oc2ccc3[nH]nc(-c4cc(N5CCO[C@@H](CN6CCC(OC7CCN(c8ccc9c(c8)C(=O)N(C8CCC(=O)NC8=O)C9=O)CC7)CC6)C5)ncn4)c3c2)CC1 (some centres unmarked)
RESULT: 10 to 50 nM

---

DC50 values by entry
- tgt: LRRK2 (endogenous, HiBit tagged) (Homo sapiens, UniProt Q5S007)
- Construct: endogenous in cells; host or cells: HEK293 cells with HiBit knock-in at the endogenous LRRK2 locus, stably expressing firefly luciferase
- Sequence (Q5S007 whole entry): as the sequence (Q5S007 whole entry G2019S) above, with S2019G counted along it
- method: Endogenous LRRK2 degradation assay, endogenous gene C-terminally HiBit-tagged in HEK293 cells (Nano-Glo Dual Luciferase)
- Type: cell-based
- condition-set: endogenous HiBit-tagged LRRK2 in HEK293 cells, 24 hours treatment; read-out: *Endogenous WT DC50

[[record]]
molecule = "COc1c(N2CCC(O[C@@H]3CCN(CC4CCN(c5cc(-c6n[nH]c7ccc(OC8(C)CC8)cc67)ncn5)CC4)C(C)(C)C3)CC2)ccc2c1CN(C1CCC(=O)NC1=O)C2=O (some centres unmarked) [Compound 322]"
result = "< 0.01 µM"

[[record]]
molecule = "C[C@@H]1CN(CC2CCN(c3cc(-c4n[nH]c5cnc(OC6(C)CC6)cc45)ncn3)CC2)CCN1CC1CCN(c2ccc3c(c2F)CN(C2CCC(=O)NC2=O)C3=O)CC1 (some centres unmarked) [Compound 272]"
result = "< 0.01 µM"


QUERY: Field: DC50 (LRRK2 (endogenous, HiBit tagged) (Homo sapiens, UniProt Q5S007)). Entry: C[C@@H]1CN(CC2CCN(c3cc(-c4n[nH]c5ccc(OC6(C)CC6)cc45)ncn3)CC2)C[C@H](C)N1CC1CCN(c2ccc3c(c2F)CN(C2CCC(=O)NC2=O)C3=O)CC1 (some centres unmarked) [Compound 307]
RESULT: < 0.01 µM

QUERY: Another molecule to look at: CC1(Oc2ccc3[nH]nc(-c4cc(N5CCC(CN6CC[C@@H](OC7CCN(c8ccc9c(c8F)CN(C8CCC(=O)NC8=O)C9=O)CC7)CC6(C)C)CC5)ncn4)c3c2)CC1 (some centres unmarked) [Compound 310]
RESULT: < 0.01 µM
